target: Human immunodeficiency virus type 1 protease (Human immunodeficiency virus 1, UniProt Q72874)
assay_readout: Ki (nM)

>>> print(df.to_string())
                                    compound  assay_readout  units  endpoint_result
 0  CCC(C1=C(O)OC(CC)(c2ccccc2)CC1=O)c1ccccc1 (configuration not stated)             Ki     nM              160
 1  CCCC1(c2ccccc2)CC(=O)C(C(CC)c2ccccc2)=C(O)O1 (configuration not stated)             Ki     nM               95
 2  CCCC1(CCC)CC(=O)C(C(CC)c2ccccc2)=C(O)O1 (configuration not stated)             Ki     nM               22
 3  CCCC1(CCc2ccccc2)CC(=O)C(C(c2ccccc2)C2CCCC2)=C(O)O1 (configuration not stated)             Ki     nM               59
 4  CCCC1(CCc2ccccc2)CC(=O)C(C(/C=C/c2ccccc2)c2ccccc2)=C(O)O1 (configuration not stated)             Ki     nM               50
 5  CCCC1(CCC)CC(O)=C(C(c2ccccc2)C2CC2)C(=O)O1 (configuration not stated)             Ki     nM               15
 6  CCCC1(CCc2ccccc2)CC(=O)C(C(CC)c2ccccc2)=C(O)O1 (configuration not stated)             Ki     nM               35
 7  CCCC1(CCc2ccccc2)CC(=O)C(C(CCc2ccccc2)c2ccccc2)=C(O)O1 (configuration not stated)             Ki     nM               33
 8  CCCC1(CCc2ccccc2)CC(=O)C(C(c2ccccc2)C2CC2)=C(O)O1 (configuration not stated)             Ki     nM               64
 9  CCC(C1=C(O)OC(c2ccccc2)(C2CCCCC2)CC1=O)c1cccc(O)c1 (configuration not stated)             Ki     nM              610
10  C=CC(C1=C(O)OC(CCC)(CCc2ccccc2)CC1=O)c1ccccc1 (configuration not stated)             Ki     nM               16
11  CCCC1(CCC)CC(=O)C(C(c2ccccc2)C2CCCC2)=C(O)O1 (configuration not stated)             Ki     nM               39

###

target: Human immunodeficiency virus type 1 protease (Human immunodeficiency virus 1, UniProt Q72874)
pIC50: −log10 of the molar value.
Collected pIC50 values appear next to each entry.
assay_readout: pIC50

                                    compound  cmp  endpoint_result
 0  CCC(C1=C(O)OC(Cc2ccccc2)(Cc2ccccc2)CC1=O)c1ccccc1 (configuration not stated)    <             5.00
 1  CCCC1(CCC)CC(=O)C(C(c2ccccc2)C(C)(C)C)=C(O)O1 (configuration not stated)    <             6.00
 2  CCC(C1=C(O)OC2(CCCCCCC2)CC1=O)c1ccccc1 (configuration not stated)    =             5.52
 3  CCC(C1=C(O)OC(Cc2ccccc2)(c2ccccc2)CC1=O)c1ccccc1 (configuration not stated)    <             5.00
 4  C=CC(C1=C(O)OC2(CCOCC2)CC1=O)c1ccccc1 (configuration not stated)    <             5.00
 5  CCC(C1=C(O)OC2(CCCCC2)CC1=O)c1ccccc1 (configuration not stated)    =             6.11
 6  CCC(C1=C(O)OC2(CCC(=O)CC2)CC1=O)c1ccccc1 (configuration not stated)    <             6.00
 7  C=CC(C1=C(O)OC2(CCCC2)CC1=O)c1ccccc1 (configuration not stated)    =             5.52
 8  C=CC(C1=C(O)OC2(CCCCC2Cc2ccccc2)CC1=O)c1ccccc1 (configuration not stated)    <             6.00
 9  C=CC(C1=C(O)OC2(CCCCCC2)CC1=O)c1ccccc1 (configuration not stated)    <             6.00
10  CCCCC1(Cc2ccccc2)CC(=O)C(C(CC)c2ccccc2)=C(O)O1 (configuration not stated)    =             5.52
11  CCC(C1=C(O)OC(CC(C)C)(CC(C)C)CC1=O)c1ccccc1 (configuration not stated)    =             4.12
